- Experimental target: thrombin (Homo sapiens)
- Procedure summary: Kinetic parameters of hydrolysis of the substrates by thrombin in buffer A at 37° C. (Example 4, Table 3)
- Assay type: biochemical
- Parameters: Pure human α-thrombin; gift of Dr. T. Lindhout (University of Limburg, Maastricht)
- Experimental setup: buffer A, 37° C.
Peptide text beside a SMILES is read from it. * marks the point of attachment. pNA = O=[N+]([O-])c1ccc(N*)cc1
Property: Thrombin kcat /Km (M/s)
The answer is to be given in M/s; state only the numeric part.

[Q] Thrombin kcat /Km lookup needed for CC(C)[C@H](NC(=O)CNC(=O)[C@@H]1CCCN1C(=O)CNC(=O)[C@@H](N)CCC(=O)O)C(=O)N[C@@H](CCCNC(=N)N)C(=O)Nc1ccc([N+](=O)[O-])cc1 [2HCl.H-EGPGVR-pNA, 2HCl.H-Glu-Gly-Pro-Gly-Val-Arg-pNA] (H-EGPGVR-pNA) , thanks.
[A] 8440

[Q] One more molecule: CC(C)[C@H](N)C(=O)N[C@@H](CCCNC(=N)N)C(=O)Nc1ccc([N+](=O)[O-])cc1.Cl.Cl [2HCl.H-Val-Arg-pNA] (H-Val-Arg-pNA)
[A] 186

[Q] One more molecule: CC(C)[C@H](NC(=O)CN)C(=O)N[C@@H](CCCCN)C(=O)Nc1ccc([N+](=O)[O-])cc1.Cl.Cl [2HCl.H-Gly-Val-Lys pNA, 2HCl.H-Gly-Val-Lys-pNA] (H-Gly-Val-Lys-pNA)
[A] 198

----------
- Experimental target: thrombin (Homo sapiens, UniProt P00734)
- Procedure summary: Kinetic parameters of hydrolysis of the substrates by thrombin in buffer A at 37° C. (Example 4, Table 3)
- Assay type: biochemical
- Parameters: Pure human α-thrombin; gift of Dr. T. Lindhout (University of Limburg, Maastricht)
- Experimental setup: buffer A, 37° C.
Peptide text beside a SMILES is read from it. * marks the point of attachment. pNA = O=[N+]([O-])c1ccc(N*)cc1
Please mark true (1) if the recorded Thrombin kcat is equal to or greater than 4 s⁻¹, and false (0) if it falls below.

[Q] Decide: Thrombin kcat of CC(C)[C@H](NC(=O)CNC(=O)[C@@H]1CCCN1C(=O)CNC(=O)[C@@H](N)CCC(=O)O)C(=O)N[C@@H](CCCNC(=N)N)C(=O)Nc1ccc([N+](=O)[O-])cc1 [2HCl.H-EGPGVR-pNA, 2HCl.H-Glu-Gly-Pro-Gly-Val-Arg-pNA] (H-EGPGVR-pNA) >= 4 s⁻¹?
[A] true (1)

[Q] One more compound: CC(C)[C@H](NC(=O)CN)C(=O)N[C@@H](CCCNC(=N)N)C(=O)Nc1ccc([N+](=O)[O-])cc1.Cl.Cl [2HCl.H-Gly-Val-Arg-pNA] (H-Gly-Val-Arg-pNA)
[A] true (1)

[Q] One more compound: CC(C)[C@H](NC(=O)CNC(=O)CNC(=O)[C@@H](N)CCC(=O)O)C(=O)N[C@@H](CCCNC(=N)N)C(=O)Nc1ccc([N+](=O)[O-])cc1 [2HCl.H-Glu-Gly-Gly-Val-Arg-pNA] (H-EGGVR-pNA)
[A] false (0)

[Q] One more compound: CC(C)[C@H](NC(=O)CNC(=O)[C@@H](N)CCC(=O)O)C(=O)N[C@@H](CCCNC(=N)N)C(=O)Nc1ccc([N+](=O)[O-])cc1 [2HCl.H-Glu-Gly-Val-Arg-pNA] (H-EGVR-pNA)
[A] false (0)

[Q] One more compound: CC(C)[C@H](N)C(=O)N[C@@H](CCCNC(=N)N)C(=O)Nc1ccc([N+](=O)[O-])cc1.Cl.Cl [2HCl.H-Val-Arg-pNA] (H-Val-Arg-pNA)
[A] false (0)

----------
So I've got a bunch of compounds here, and I need their Km values.
- Experimental target: human α-thrombin (Homo sapiens)
- Construct: Pure human α-thrombin; gift of Dr. T. Lindhout (University of Limburg, Maastricht)
- Procedure summary: Kinetics of hydrolysis of substrates by human α-thrombin in buffer A at 37° C. (Example 2, Table 1)
- Type: biochemical
Square brackets hold non-standard residues; d marks the D form. Peptide text beside a SMILES is read from it. * marks the point of attachment. pNA = O=[N+]([O-])c1ccc(N*)cc1; Pip = O=C(O)[C@@H]1CCCCN1; Boc = CC(C)(C)OC(=O)*
The answer is to be given in µM; state only the numeric part.

[Q] Km lookup needed for COc1ccc(COC(=O)NCC(=O)N[C@@H](CCCNC(=N)N)C(=O)Nc2ccc([N+](=O)[O-])cc2)cc1.Cl [MZ-Gly-Arg-pNA.HCl] , thanks.
[A] 2540

[Q] One more compound: C[C@@H](N)C(=O)N[C@@H](CCCNC(=N)N)C(=O)Nc1ccc([N+](=O)[O-])cc1.Cl.Cl [2HCl.H-D-Ala-Arg-pNA] (H-[dA]-Arg-pNA)
[A] 4080

[Q] One more compound: COC(=O)C(C)(C)C(=O)N[C@@H](C)C(=O)N[C@@H](CCCNC(=N)N)C(=O)Nc1ccc([N+](=O)[O-])cc1.Cl [DMMZ-Ala-Arg-pNA.HCl]
[A] 565

[Q] One more compound: COC(=O)CC(=O)N[C@H](C)C(=O)N[C@@H](CCCNC(=N)N)C(=O)Nc1ccc([N+](=O)[O-])cc1.Cl [MZ-D-Ala-Arg-pNA.HCl]
[A] 1330

[Q] One more compound: COC(=O)CC(=O)N[C@H](C(=O)N[C@@H](CCCNC(=N)N)C(=O)Nc1ccc([N+](=O)[O-])cc1)C(C)C.Cl [MZ-Val-Arg-pNA.HCl]
[A] 1010

[Q] One more compound: CC(C)[C@H](NC(=O)CN)C(=O)N[C@@H](CCCNC(=N)N)C(=O)Nc1ccc([N+](=O)[O-])cc1.Cl.Cl [2HCl.H-Gly-Val-Arg-pNA] (H-Gly-Val-Arg-pNA)
[A] 1640

[Q] One more compound: Cl.Cl.N=C(N)NCCC[C@H](NC(=O)[C@@H]1CCCN1C(=O)[C@H](N)Cc1ccccc1)C(=O)Nc1ccc([N+](=O)[O-])cc1 [2HCl.H-D-Phe-Pro-Arg-pNA]
[A] 3.16

[Q] One more compound: Cl.Cl.NCCCC[C@H](NC(=O)[C@@H]1CCCN1C(=O)[C@H](N)Cc1ccccc1)C(=O)Nc1ccc([N+](=O)[O-])cc1 [2HCl.H-D-Phe-Pro-Lys-pNA] (H-[dF]-Pro-Lys-pNA)
[A] 35

[Q] One more compound: Cl.N[C@H](Cc1ccccc1)C(=O)N1CCCC[C@H]1C(=O)N[C@@H](CCC(=O)O)C(=O)Nc1ccc([N+](=O)[O-])cc1 [HCl.H-D-Phe-Pip-Glu-pNA] (H-[dF]-[Pip]-Glu-pNA)
[A] 474

[Q] One more compound: CC(C)[C@@H](N)C(=O)N[C@@H](CCCNC(=N)N)C(=O)Nc1ccc([N+](=O)[O-])cc1.Cl.Cl [2HCl.H-D-Val-Arg-pNA] (H-[dV]-Arg-pNA)
[A] 4250

[Q] One more compound: CC(C)[C@H](NC(=O)CNC(=O)OC(C)(C)C)C(=O)N[C@@H](CCCNC(=N)N)C(=O)Nc1ccc([N+](=O)[O-])cc1.Cl [Boc-Gly-Val-Arg-pNA.HCl] (Boc-Gly-Val-Arg-pNA)
[A] 244

----------
So I've got a bunch of molecules here, and I need their Km values.
- Experimental target: factor Xa (Homo sapiens, UniProt P00742)
- Construct: human factor Xa samples; gift of Dr. T. Lindhout (University of Limburg, Maastricht)
- Sequence (P00742 41-179 limits assumed): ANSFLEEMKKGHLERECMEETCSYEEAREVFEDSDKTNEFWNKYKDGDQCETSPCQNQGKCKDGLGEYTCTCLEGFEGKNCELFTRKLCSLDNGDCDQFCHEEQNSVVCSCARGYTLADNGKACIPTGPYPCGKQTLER
- Sequence (P00742 235-488 limits assumed): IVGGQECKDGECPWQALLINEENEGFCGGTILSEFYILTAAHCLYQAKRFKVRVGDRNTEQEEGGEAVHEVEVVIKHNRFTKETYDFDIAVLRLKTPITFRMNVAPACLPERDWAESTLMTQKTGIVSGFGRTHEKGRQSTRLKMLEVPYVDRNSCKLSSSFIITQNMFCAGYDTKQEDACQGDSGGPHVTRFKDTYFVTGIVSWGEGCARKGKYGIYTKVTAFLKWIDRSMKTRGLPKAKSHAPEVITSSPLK
- Procedure summary: Kinetic parameters of hydrolysis of the substrates by factor Xa in buffer A at 37° C. (Example 4, Table 3)
- Format: biochemical
- Experimental setup: buffer A, 37° C., 50 nM factor Xa
- Experimental: Kinetic parameters: The hydrolysis experiments were run in buffer A at 37° C. The liberation of p-nitroaniline was monitored at 405 nm in a dual wavelength (405-546 nm) spectrophotometer made in our workshop, using a personal computer for data recording. In a polystyrene microcuvette (total volume 500 μL), buffer A and substrate solution were added to obtain a final substrate concentration between 200 to 2000 μM. […]
Peptide text beside a SMILES is read from it. * marks the point of attachment. pNA = O=[N+]([O-])c1ccc(N*)cc1
The answer is to be given in µM; state only the numeric part.

[Q] Km lookup needed for CC(C)[C@H](NC(=O)CNC(=O)CNC(=O)[C@@H]1CCCN1C(=O)[C@@H](N)CCC(=O)O)C(=O)N[C@@H](CCCNC(=N)N)C(=O)Nc1ccc([N+](=O)[O-])cc1 [2HCl.H-EPGGVR-pNA, 2HCl.H-Glu-Pro-Gly-Gly-Val-Arg-pNA] (H-EPGGVR-pNA) , thanks.
[A] 961

[Q] One more molecule: CC(C)[C@H](NC(=O)OCCS(C)(=O)=O)C(=O)N[C@@H](CCCNC(=N)N)C(=O)Nc1ccc([N+](=O)[O-])cc1.Cl [Msc-Val-Arg-pNA.HCl]
[A] 9550

[Q] One more molecule: CC(C)[C@H](NC(=O)CNC(=O)[C@@H]1CCCN1C(=O)CNC(=O)[C@@H](N)CCC(=O)O)C(=O)N[C@@H](CCCNC(=N)N)C(=O)Nc1ccc([N+](=O)[O-])cc1 [2HCl.H-EGPGVR-pNA, 2HCl.H-Glu-Gly-Pro-Gly-Val-Arg-pNA] (H-EGPGVR-pNA)
[A] 2190
